B1: HDV Ribozyme (parent)
chain: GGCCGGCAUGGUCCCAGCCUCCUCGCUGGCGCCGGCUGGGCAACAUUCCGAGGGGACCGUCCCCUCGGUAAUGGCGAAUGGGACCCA

Variants of: B1
Test: self-cleavage, relative activity (ratio to wild type); higher = more cleavage; co-transcriptional
Assay Endpoint: self-cleavage
The response must contain the number and no unit.

I would be grateful if you could share the reported self-cleavage for A51G G80C .
0.141

I would be grateful if you could share the reported self-cleavage for A45G G76C .
1.07

I would be grateful if you could share the reported self-cleavage for A16C G29A .
0.116

I would be grateful if you could share the reported self-cleavage for G28C C86G .
0.0692

I would be grateful if you could share the reported self-cleavage for U12G C61A .
0.798

I would be grateful if you could share the reported self-cleavage for G53C G55A .
0.898

I would be grateful if you could share the reported self-cleavage for G6A G82U .
0.188

I would be grateful if you could share the reported self-cleavage for C7A U12C .
0.172

I would be grateful if you could share the reported self-cleavage for U37G G74C .
0.0361

I would be grateful if you could share the reported self-cleavage for C4U G6U .
0.219

I would be grateful if you could share the reported self-cleavage for G10A G59A .
0.853

I would be grateful if you could share the reported self-cleavage for C57U C62U .
0.799

I would be grateful if you could share the reported self-cleavage for G5C G35C .
0.147

I would be grateful if you could share the reported self-cleavage for C30U C84U .
0.319

I would be grateful if you could share the reported self-cleavage for U60A C62U .
1.08

I would be grateful if you could share the reported self-cleavage for G54A A77G .
0.614

I would be grateful if you could share the reported self-cleavage for A42C C61G .
0.269

I would be grateful if you could share the reported self-cleavage for C26G U27A .
0.516

I would be grateful if you could share the reported self-cleavage for A51G G73U .
0.397

I would be grateful if you could share the reported self-cleavage for A8G C48G .
1.11

I would be grateful if you could share the reported self-cleavage for C7U C19G .
0.0528

I would be grateful if you could share the reported self-cleavage for C36U A70G .
0.969
